Biological target: 11β-HSD1 (Homo sapiens (Human), UniProt P28845)
Sequence (P28845 whole entry): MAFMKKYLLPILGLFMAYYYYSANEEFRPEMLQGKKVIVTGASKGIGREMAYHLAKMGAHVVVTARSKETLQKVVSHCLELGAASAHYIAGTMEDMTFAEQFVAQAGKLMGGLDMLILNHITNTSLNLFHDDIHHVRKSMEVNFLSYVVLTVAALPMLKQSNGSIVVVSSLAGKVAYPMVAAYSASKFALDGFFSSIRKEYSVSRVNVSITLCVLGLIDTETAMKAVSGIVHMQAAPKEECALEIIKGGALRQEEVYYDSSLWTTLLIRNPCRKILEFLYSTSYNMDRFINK
Experiment: Biological Test Example 1: inhibition of a microsomal preparation of 11β-HSD1 (SPA)
Assay type: biochemical
Conditions: Biological Test Example 1; read-out: IC50
Exercise: state measured pIC50 for each of the compounds provided.
Numbers only, as −log10 of the molar value.

Use the examples below as a reference point.
>>> reported("Cn1ccc(-c2csc([C@H]3CCCN3C(=O)O[C@H]3C4CC5CC3C[C@](C(N)=O)(C5)C4)n2)cc1=O [EXAMPLE 55]")
8.68
>>> reported("O=C(O)COCC1(c2ccccc2)CCN(C(=O)OC2C3CC4CC(C3)CC2C4)CC1 (centres unmarked) [EXAMPLE 16]")
7.36
>>> reported("Cn1ccc(-c2csc(C3CCN(C(=O)O[C@H]4C5CC6CC4C[C@](C(N)=O)(C6)C5)C3)n2)cc1=O (some centres unmarked) [EXAMPLE 56]")
8.71
>>> reported("Cn1c(=O)n([C@@H]2CCN(C(=O)O[C@H]3C4CC5CC3C[C@](C(N)=O)(C5)C4)C2)c2ccccc21 [EXAMPLE 62]")
8.51
>>> reported("O=C(O[C@H]1C2CC3CC1C[C@](O)(C3)C2)N1CC[C@@H](Oc2ccc(C(F)(F)F)cn2)C1 [EXAMPLE 4]")
8.58

Record pIC50 per entry; entries follow.
1. Cc1cc(C2CCN(C(=O)OC3C4CC5CC3CC(C(N)=O)(C5)C4)C2)nn1C (single isomer, unassigned) [EXAMPLE 40 Isomer 1]
2. O=C(OC1C2CC3CC(C2)CC1C3)N1CCC(c2ncc(Cl)cn2)C1 (centres unmarked) [EXAMPLE 34]

8.16
9.28

###

Molecular target: 11β-HSD1 (Homo sapiens (Human), UniProt P28845)
Assay: Biological Test Example 1: inhibition of a microsomal preparation of 11β-HSD1 (SPA)
Format: biochemical
Conditions: Biological Test Example 1; microsomes from CHO cells overexpressing human 11β-HSD1; read-out: IC50 Range
endpointLabel: IC50

>>> reported("Cc1cnc(C2CCN(C(=O)OC3C4CC5CC3CC(C(N)=O)(C5)C4)C2)nc1 (single isomer, unassigned) [EXAMPLE 39 Isomer 2]")
"> 100 nM"
>>> reported("Cn1c(C2CCN(C(=O)O[C@H]3C4CC5CC3C[C@](C(N)=O)(C5)C4)C2)nc2ccccc21 (stereo partly drawn)")
"< 100 nM"
>>> reported("NC(=O)[C@]12CC3CC(C1)[C@@H](OC(=O)N1CC[C@H](n4c(=O)[nH]c5ccccc54)C1)C(C3)C2")
"< 100 nM"
>>> reported("NC(=O)[C@]12CC3CC(C1)[C@@H](OC(=O)N1CC[C@@H](n4c(=O)[nH]c5ccccc54)C1)C(C3)C2")
"< 100 nM"

Record IC50 per entry; entries follow.
1. Cc1cc(C)nc(C2CCN(C(=O)OC3C4CC5CC3CC(C(N)=O)(C5)C4)C2)n1 (single isomer, unassigned) [EXAMPLE 43 Isomer 2]
2. Cc1ncc(C2CCN(C(=O)OC3C4CC5CC3CC(C(N)=O)(C5)C4)C2)cn1 (single isomer, unassigned) [EXAMPLE 36 Isomer 2]

> 100 nM
> 100 nM

###

Molecular target: 11β-HSD1 (Homo sapiens (Human))
Assay: Biological Test Example 1: inhibition of a microsomal preparation of 11β-HSD1 (SPA)
Format: biochemical
Conditions: read-out: Average % inhibition at 100 nM, Biological Test Example 1; 100 nM compound
endpointLabel: inhibition at 0.1 µM (%)
Answers are plain numbers, in %.

Use the examples below as a reference point.
>>> reported("O=C(OC1C2CC3CC(C2)CC1C3)N1CCC[C@@H]1c1nc(-c2cc[n+]([O-])cc2)cs1 (some centres unmarked) [EXAMPLE 52]")
95.1
>>> reported("NC(=O)[C@]12CC3CC(C1)[C@@H](OC(=O)N1CCC[C@@H]1c1nc(-c4cc[nH]c(=O)c4)cs1)C(C3)C2 [EXAMPLE 54]")
95.4
>>> reported("Cc1nc2cccc(Cl)c2n1[C@@H]1CCN(C(=O)OC2C3CC4CC2CC(C(N)=O)(C4)C3)C1 (some centres unmarked) [EXAMPLE 59]")
96.7
>>> reported("O=C(OC1C2CC3CC(C2)CC1C3)N1CCC(c2nc(-c3ccncc3)cs2)C1 (centres unmarked) [EXAMPLE 51]")
96.8
>>> reported("NC(=O)[C@]12CC3CC(C1)[C@@H](OC(=O)N1CC[C@H](n4c(=O)[nH]c5cccc(Cl)c54)C1)C(C3)C2 [EXAMPLE 67]")
97.7
>>> reported("Cc1nc2cc(C#N)ccc2n1[C@H]1CCN(C(=O)OC2C3CC4CC2CC(C(N)=O)(C4)C3)C1 (some centres unmarked) [EXAMPLE 75]")
39.1
>>> reported("O=C(O[C@H]1C2CC3CC1C[C@](O)(C3)C2)N1CC[C@@H](Oc2ccc(C(F)(F)F)cn2)C1 [EXAMPLE 4]")
90.3
>>> reported("Cn1c(=O)ccc2cc(C3CCN(C(=O)OC4C5CC6CC(C5)CC4C6)C3)ccc21 (centres unmarked) [EXAMPLE 17]")
94.2

Record inhibition at 0.1 µM per entry; entries follow.
1. NC(=O)[C@]12CC3CC(C1)[C@@H](OC(=O)N1CC[C@@H](n4c(=O)[nH]c5cc(Cl)cnc54)C1)C(C3)C2 [EXAMPLE 69]
2. Cn1c(C2CCCN2C(=O)OC2C3CC4CC2CC(C(N)=O)(C4)C3)nc2ccccc21 (centres unmarked) [EXAMPLE 32]
3. NC(=O)[C@]12CC3CC(C1)[C@@H](OC(=O)N1CC[C@@H](n4c(=O)[nH]c5cccc(Cl)c54)C1)C(C3)C2 [EXAMPLE 68]

[97, 94.7, 96.9]

###

Biological target: 11β-HSD1 (Homo sapiens (Human))
Test: Biological Test Example 1: inhibition of a microsomal preparation of 11β-HSD1 (SPA)
Format: biochemical
Details: Biological Test Example 1; microsomes from CHO cells overexpressing human 11β-HSD1; read-out: IC50 Range
pIC50: −log10 of the molar value.
Exercise: state measured pIC50 for each of the molecules provided.

Use the examples below as a reference point.
>>> reported("Cc1ccnc(C2CCN(C(=O)OC3C4CC5CC3CC(C(N)=O)(C5)C4)C2)n1 (single isomer, unassigned) [EXAMPLE 38 Isomer 2]")
"< 7.00"
>>> reported("NC(=O)[C@]12CC3CC(C1)[C@@H](OC(=O)N1CCC(c4ncc(Cl)cn4)C1)C(C3)C2 (single isomer, unassigned) [EXAMPLE 26]")
"> 7.00"

Now for the molecule whose pIC50 we want.
Please look up its pIC50: Cc1ccnc(C2CCN(C(=O)OC3C4CC5CC3CC(C(N)=O)(C5)C4)C2)n1 (single isomer, unassigned) [EXAMPLE 38 Isomer 1]
> 7.00
